Property: IC50; scope: individual compounds
- Study target: SCD5 (Homo sapiens, UniProt Q86SK9)
- Construct: host or cells: S. cerevisiae ole1Δ strain (W303 pdr1Δ pdr3Δ background), plasmid pRS316 with TDH3 promoter and CYC1 terminator
- Sequence (Q86SK9 whole entry): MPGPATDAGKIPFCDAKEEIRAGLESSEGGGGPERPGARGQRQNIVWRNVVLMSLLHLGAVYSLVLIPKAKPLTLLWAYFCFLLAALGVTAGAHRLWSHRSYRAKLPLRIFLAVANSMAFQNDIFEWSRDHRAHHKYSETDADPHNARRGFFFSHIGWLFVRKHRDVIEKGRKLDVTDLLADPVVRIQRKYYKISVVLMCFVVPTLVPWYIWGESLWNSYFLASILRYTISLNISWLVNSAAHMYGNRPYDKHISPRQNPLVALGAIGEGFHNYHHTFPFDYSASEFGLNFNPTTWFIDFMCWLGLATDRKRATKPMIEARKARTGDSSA
- Protocol summary: Growth inhibition of humanized yeast strain expressing SCD5 as sole desaturase
- Type: cell-based
- Assay setup: humanized yeast strain expressing SCD5

Observe how each entry below is paired with its result.
Compound | IC50
CCN1C(=O)CN(C)c2cc(-c3noc(C4CCN(C(=O)CNC(=O)c5ccccc5)CC4)n3)ccc21 | > 45 µM
Cn1ncc2ccc(-c3noc(C4CCN(C(=O)CNC(=O)c5ccccc5)CC4)n3)cc21 | 39.3 µM
CCOc1ccc(-c2noc(C3CCN(C(=O)N4CCCCC4)CC3)n2)cc1OC | > 45 µM
Cc1nn(C)c2cc(-c3noc(C4CCN(C(=O)C5CC(=O)N(c6ccc(C#N)cc6)C5)CC4)n3)ccc12 (stereo not shown) | > 45 µM
Cc1ccc(-c2noc(C3CCN(C(=O)[C@@H]4CC(=O)N(c5ccc(C)c(C)c5)C4)CC3)n2)cc1 | > 45 µM
Cc1nn(C)c2cc(-c3noc(C4CCN(C(=O)C5CC(=O)N(c6ccccc6)C5)CC4)n3)ncc12 (stereo not shown) | > 45 µM
COC(=O)N1CCC2(CC1)CN(c1nc(-c3ccc4cnn(C(C)C)c4c3)no1)C2 | 26.3 µM
CC(C)n1ncc2ccc(-c3noc(C4CCN(C(=O)c5ccc(F)cc5)CC4)n3)cc21 | 10 µM

Qu. Quick one: IC50 of COc1ccccc1C(=O)NCC(=O)N1CCC(c2nc(-c3ccc4c(C)nn(C)c4c3)no2)CC1 ?
Ans. > 45 µM

Qu. Quick one: IC50 of N#Cc1ccc(-c2noc(C3CCN(C(=O)[C@H]4CC(=O)N(c5ccccc5)C4)CC3)n2)s1 ?
Ans. > 45 µM

Qu. Quick one: IC50 of O=C(NCC(=O)N1CCC(c2nc(-c3ccc(Cl)c(Cl)c3)no2)CC1)c1ccccc1 ?
Ans. > 45 µM

###

- Study target: SCD1 (Homo sapiens, UniProt O00767)
- Construct: host or cells: S. cerevisiae ole1Δ strain (W303 pdr1Δ pdr3Δ background), plasmid pRS316 with TDH3 promoter and CYC1 terminator
- Sequence (O00767 whole entry): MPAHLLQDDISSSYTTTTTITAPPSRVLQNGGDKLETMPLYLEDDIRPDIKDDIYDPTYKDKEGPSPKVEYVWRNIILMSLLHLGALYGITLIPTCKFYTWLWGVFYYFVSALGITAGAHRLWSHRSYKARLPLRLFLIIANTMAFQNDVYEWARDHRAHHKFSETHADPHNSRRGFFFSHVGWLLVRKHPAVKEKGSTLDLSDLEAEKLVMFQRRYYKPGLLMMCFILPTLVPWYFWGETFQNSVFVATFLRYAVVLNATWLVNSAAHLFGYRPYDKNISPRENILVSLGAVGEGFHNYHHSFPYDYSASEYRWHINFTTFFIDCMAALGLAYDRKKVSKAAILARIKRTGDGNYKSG
- Protocol summary: Growth inhibition of humanized yeast strain expressing SCD1 as sole desaturase
- Assay type: cell-based
- Assay setup: humanized yeast strain expressing SCD1
- Description: Strain oleΔ (yeast ole1 deletion mutant) was constructed by deleting OLE1 with NAT-MX6 in BY4741, amplifying the deletion cassette from the genomic DNA of the resulting strain with primers flanking the ORF by 1000 bp upstream and downstream, transforming the resulting deletion cassette into W303 pdr1Δ pdr3Δ, and plating transformants on YPD media containing G418 (200 μg/mL) and nourseothricin ([…]) with 0.01% TWEEN®-20 and 0.5 mM oleic and palmitoleic acids. […]
Value type: SCD1 % Max Inhibition (%)
Use % as the unit, but write only the number.

Observe how each entry below is paired with its result.
Molecule | Experimental value
O=C(CN1Cc2ccccc2C1=O)N1CCC(c2nc(-c3ccc4c(c3)COC4)no2)CC1 | 68.23
Cc1nn(C)c2cc(-c3noc(C4CCN(C(=O)CN5Cc6ccccc6C5=O)CC4)n3)cnc12 | 79.67
Cc1noc2cc(-c3noc(C4CCN(C(=O)CNC(=O)c5ccccc5)CC4)n3)ccc12 | 92.42
Cc1nn(C)c2cc(-c3noc(C4CCN(C(=O)CNC(=O)c5ccccc5)CC4)n3)ncc12 | 74.54
O=C(C1CC(=O)N(c2cccc(Cl)c2)C1)N1CCC(c2nc(N3CC4(COC4)C3)no2)CC1 (stereo not drawn) | 56.1
Cn1c(=O)n(C)c2cc(-c3noc(C4CCN(C(=O)CNC(=O)c5ccccc5)CC4)n3)ccc21 | 92.73
O=C(C1CC(=O)N(c2cccc(Cl)c2)C1)N1CCC(c2nc(N3CCOCC3)no2)CC1 (stereo not drawn) | 76.1
O=C(CNC(=O)c1ccccc1)NCCc1nc(-c2ccccc2)no1 | 62.60

Qu. Quick one: SCD1 % Max Inhibition of CC(C)(CO)n1ncc2ccc(-c3noc(C4CCN(C(=O)CNC(=O)c5ccccc5)CC4)n3)cc21 ?
Ans. 88.10

FYI, the data here is from patent US11873298B2.
